Tested on: Candida albicans
Details: 20 µM
Description: Antifungal activity against Candida albicans ATCC 90028 (CO-ADD:FG_001); MIC in YNB media using NBS plates, by OD630
Entries with a potency or affinity are not part of this list.
measurement-label: Inhibition (%)
# unit: % | format: bare number

Examples with their reported Inhibition follow.
OC(c1ccccc1)(c1ccccc1)c1nccn1-c1ccccc1    1.72
Oc1nc2ccccc2n1C1=CCNCC1    2.14
CC1(C)CC(Nc2ccc(Nc3ccccc3)cc2)CC(C)(C)N1    1.33

Notebook: `C1CCc2nc3c(nc2C1)CCCC3` , Inhibition read as 1.61

Notebook: `Cc1ccc(NC(=O)Nc2cccnc2)cc1NC(=O)Nc1cccnc1` , Inhibition read as -3.78

Notebook: `COc1cc(NCc2ccccc2O)c2ncccc2c1` , Inhibition read as 4.54

---

Test system: Candida albicans
Details: 20 µM
Results with a measured potency or affinity are listed apart.
Listed here: items and their measured Inhibition.
# unit: % | format: bare number

Examples with their reported Inhibition follow.
COc1cc2c(c(OC)c1O)C(=O)CO2    3.59
CC(=O)Nc1cc(NC(C)=O)ncn1    3.12
CC(=O)OCC1OC(COC(C)=O)(c2ccc(C)cc2)C(OC(C)=O)C1OC(C)=O (stereo not drawn)    -0.8
CCCNC(=O)c1ccc(Cl)cc1Cl    0.63
O=C(O)c1ccc2c(c1Sc1ccccc1)C(=O)c1ccccc1C2=O    1.7
Cc1csc(/N=N/c2ccc(N(C)C)cc2)[n+]1[O-]    0.83

Tested on Candida albicans: `CN1CN(C)C(c2ccncc2)=C1c1ccncc1` . Observed Inhibition: -0.59

Tested on Candida albicans: `O=C1Cc2cccc(O)c(=O)c2C(=O)O1` . Observed Inhibition: 1.02

---

Test system: Candida albicans
Settings: 20 µM
Entries with a potency or affinity are not part of this list.
measurement-label: Inhibition (%)
# unit: % | format: bare number

Examples with their reported Inhibition follow.
NC(=O)NC1NC(=O)NC1=O (configuration not stated)    2.26
O=C1OC(Cc2ccccc2)C(c2ccccc2)C1=O (configuration not stated)    6.87
Nc1[nH]nc2nc(-c3ccccc3)nc(O)c12    -0.22
Cc1ccc(-c2nc(-c3nccc4ccccc34)oc2-c2ccccc2)cc1    18.7
CCCCCC(=O)N1CCCCC1    3.39

Proceeding to the next compound to report its Inhibition.
Notebook: `O=C(Nc1ccccc1-c1ccccc1)C(=O)Nc1ccccc1-c1ccccc1` , Inhibition read as 2.13

---

Listed here: items and their measured Inhibition.
Test system: Acinetobacter baumannii
Assay: Antibacterial activity against Acinetobacter baumannii ATCC 19606 (CO-ADD:GN_034); MIC in CAMBH media using NBS plates, by Resazurin F(560/590)
Assay type: functional
Conditions: Concentration 20 uM, ASSAY_TEST Inhibition of Bacterial Growth, detection method Resazurin, Fluorescence (ex560/em590), MEDIA CAMHB, plate type 384well, CORNING #3640, time 18 hr
# unit: % | format: bare number

Examples with their reported Inhibition follow.
Nc1cc([N+](=O)[O-])ccc1N1C(=O)CCCC1=O    15.02
Cc1cc(-n2cnc3c(O)ncnc32)ccc1N    -17.95

Notebook: `CCCN(CCC)c1ccc(/C=C/c2ccc3cc(OCC)ccc3n2)cc1` , Inhibition read as 8.69

Notebook: `CSc1nc(O)nnc1Sc1ccccc1` , Inhibition read as -15.47

Notebook: CCOC(=O)C1C(=O)C(=O)N(C(C)C)C1C(=O)OCC (stereo not drawn) , Inhibition read as 14.67

Notebook: O=C1OC(Cc2ccccc2)C(c2ccccc2)C1=O (stereo not drawn) , Inhibition read as 11.9

Notebook: `COc1cc(/C=N/N=c2\[nH]c3c(=O)n(C)c(=O)n(C)c3[nH]2)ccc1O` , Inhibition read as -6.89

Notebook: `COc1cc2c(=O)n3c4c(cccc4c2cc1OC)CC3` , Inhibition read as -8.34

Notebook: O=C1CCCC1C(=O)Nc1ccc2ccccc2c1 (stereo not drawn) , Inhibition read as 10.21

Notebook: `COc1ccc(C(=O)O)nc1C` , Inhibition read as -9.48

Notebook: `O=C(OCC(O)COC(=O)c1cccnc1)c1cccnc1` , Inhibition read as 10.73

Notebook: `COc1cc(OC)c2c(=O)cc(-c3cccnc3)oc2c1` , Inhibition read as 11.57

Notebook: `CSc1nnc(-c2cccs2)[nH]1` , Inhibition read as -12.85

---

System: Klebsiella pneumoniae
Details: Concentration 20 uM; ASSAY_TEST Inhibition of Bacterial Growth; detection method Absorption (OD600); MEDIA CAMHB; plate type 384well; NBS; CORNING #3640; time 18 hr
Description: Antibacterial activity against Klebsiella pneumoniae MDR ATCC 70063 (CO-ADD:GN_003); MIC in CAMBH media using NBS plates, by OD(600)
Measured potencies and affinities stand elsewhere.
measurement-label: Inhibition

Examples with their reported Inhibition follow.
CCCCn1ccnc1C    8.98%
CNc1ncnc2c1cnn2C1CCCCO1 (stereo unspecified)    6.75%

Notebook: `S=C(Nc1ccccc1)c1ccccn1` , Inhibition read as 19.37%

Notebook: Cc1ccc(NC(=O)NNC(=O)CSC2CCc3ccccc32)c(C)c1 (stereo unspecified) , Inhibition read as 5.08%

Notebook: `Clc1cc2c(c(CSc3nc4ccccc4n4cccc34)c1)OCOC2` , Inhibition read as 3.77%

Notebook: CS/C(=C\c1ccc(C(=O)c2ccc(C)cc2)n1C)[S+](C)[O-] (stereo unspecified) , Inhibition read as 18.35%

Notebook: `OCc1ncc(-c2ccccc2)s1` , Inhibition read as 5.05%

Notebook: `Cc1cc(=O)n2nc(-c3ccc(C(C)(C)C)cc3)cc2[nH]1` , Inhibition read as 14.85%

Notebook: `CCC(CC)c1ncc[nH]1` , Inhibition read as 17.39%

Notebook: `Cn1ncc2c(NCc3ccccc3)ncnc21` , Inhibition read as 1.24%

---

Tested on: Acinetobacter baumannii
Test: Antibacterial activity against Acinetobacter baumannii ATCC 19606 (CO-ADD:GN_034); MIC in CAMBH media using NBS plates, by Resazurin F(560/590)
Type: functional
Settings: Concentration 20 uM, ASSAY_TEST Inhibition of Bacterial Growth, detection method Resazurin, Fluorescence (ex560/em590), MEDIA CAMHB, plate type 384well, CORNING #3640, time 18 hr
measurement-label: Inhibition (%)
# unit: % | format: bare number

O=C(O)c1ccccc1-c1ccccc1C(=O)Nc1ccc2c(c1)nc(O)c1ccccc12    -9.28
CCc1noc2cc(-c3ccccc3)n(C)c(=O)c12    2.9
Cc1cccc2c1c1ccc3c(c1n2C)C(=O)C=CC3=O    -13.4
Cc1nn(-c2ccccc2)c2c1C(c1ccc([N+](=O)[O-])cc1)C(C#N)=C(N)O2 (configuration not stated)    2.7
CCOC(=O)Nc1csnn1    -5.72

Notebook: Cc1cc(=O)[nH]/c(=N/N=C2/CCCCC2C)[nH]1 (configuration not stated) , Inhibition read as -10.76

Notebook: C#CC(C)OCC1CNC(=S)O1 (configuration not stated) , Inhibition read as 0.13

Notebook: `CCSc1ncc(CO)c(N)n1` , Inhibition read as -13.15

---

Test system: Staphylococcus aureus
Assay: Antibacterial activity against Staphylococcus aureus MRSA ATCC 43300 (CO-ADD:GP_020); MIC in CAMBH media using NBS plates, by Resazurin F(560/590)
Format: functional
Conditions: Concentration 20 uM, ASSAY_TEST Inhibition of Bacterial Growth, detection method Resazurin, Fluorescence (ex560/em590), MEDIA CAMHB, plate type 384well, CORNING #3640, time 18 hr
Listed here: items and their measured Inhibition.
# unit: % | format: bare number

Examples with their reported Inhibition follow.
O=C(COc1cc(Cl)c(Cl)cc1Cl)Nc1ccc([N+](=O)[O-])cc1Cl    25.16
O=C1CSCc2nc3ccccc3n21    4.29
CN(C)c1ccc(C(c2ccc(N(C)C)cc2)c2ccc([N+](=O)[O-])cc2)cc1    15.85
OC1COC(OCc2ccccc2)C(O)C1O (stereo not given)    21
Nc1ncnc2c1ncn2C1C=C(CO)C(O)C1O (stereo not given)    4.94

Notebook: `N#CCc1cnc2ccccc2n1` , Inhibition read as 13.21

---

System: Staphylococcus aureus
Experiment: Antibacterial activity against Staphylococcus aureus MRSA ATCC 43300 (CO-ADD:GP_020); MIC in CAMBH media using NBS plates, by Resazurin F(560/590)
Assay type: functional
Conditions: Concentration 20 uM, ASSAY_TEST Inhibition of Bacterial Growth, detection method Resazurin, Fluorescence (ex560/em590), MEDIA CAMHB, plate type 384well, CORNING #3640, time 18 hr
Listed here: items and their measured Inhibition.
# unit: % | format: bare number

COc1cccc(OCC(O)CN2CCN(c3ccc(Cl)cc3)CC2)c1 (configuration not stated)    13.17
CCC(=Cc1ccc(CC)cn1)CC    5.02
Br.C=CC1CN2CCC1CC2C(O)c1ccnc2ccc(OC)cc12 (configuration not stated)    -3.41
Cc1cc(C)n(C(=N)NC(=O)c2ccc([N+](=O)[O-])cc2)n1    1.83
O=C1Cc2cccc(O)c(=O)c2C(=O)O1    18.22

Notebook: `O=Cc1c[nH]c2ncccc12` , Inhibition read as 3.78

Notebook: O=C1CCCC1C(=O)Nc1ccc2ccccc2c1 (configuration not stated) , Inhibition read as 9.31

Notebook: `O=C(O)c1nn(-c2ccccc2-c2nnc(O)nc2O)c(=O)[nH]c1=O` , Inhibition read as 28.61

Notebook: `CCOP(=O)(OCC)/C(C#N)=C/c1c[nH]c2ccccc12` , Inhibition read as 16.69

Notebook: `Nc1nnc(S)n1-c1ccc(Cl)cc1` , Inhibition read as 10.79

Notebook: `c1ccc(-c2nnc(-c3ccccn3)[nH]2)nc1` , Inhibition read as 12.66

Notebook: `C[C@]12CC[C@H](O)CC1=CC[C@@H]1[C@@H]2CC[C@]2(C)c3n[nH]cc3C[C@@H]12` , Inhibition read as 17.35
